Give GFP response vs DMSO for every item shown.
# PROTOCOL DETAILS: TOR pathway GLN3 branch reporter MEP2-GFP changes – S. cerevisiae, multiplex flow cytometry, MLPCN library, primary screen (AID 2016);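 also: median GFP fluorescence of the barcode-gated MEP2-GFP cells per well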
# EXPERIMENTAL CONTEXT: S. cerevisiae MEP2-GFP strain, 3 h, at 10 µM, stronger effect = higher value, 100% = DMSO control level
Out of some 330,000 compounds screened, about 1,700 (0.52%) were called active. This is one part of a sample in which actives are shown more often than they occur.

Which value of GFP response vs DMSO has been reported for O=C(NCC(F)(F)F)Nc1nnc(C(F)(F)F)s1 in the records?
90.6% (inactive)

Also C[N+](C)(C)CCNC(=O)c1cc[n+](Cc2ccccc2)c(/C=N/O)c1 , if possible.
104% (inactive)

Try the molecule C[n+]1ccc(/C=C/c2c[nH]c3ccccc23)cc1
403% (active)

Another: O=C(NC1CCCC1)C(=O)c1c[nH]c2ccccc12
90.7% (inactive)

Param item: COc1ccc(CNC(=O)CN2CCC(n3nnc4cc(F)ccc43)CC2)cc1
88.8% (inactive)

Follow-up item: COc1ccc2sc(-c3ccc(N(C)C)cc3)c(C#CCO)c2c1
180% [may fluoresce violet] (active)

What do we get for O=C(CSc1ncnc2sccc12)N1CCN(C(=O)c2cccs2)CC1 ?
105% (inactive)

Lookup O=C(CN1CCCC1)N1CCN(c2ccccc2)CC1
91.7% (inactive)

Then what about the molecule CCC1(C)Cc2c(sc3nnn(CC(=O)Nc4ccc(Cl)cc4)c(=O)c23)CO1 (stereo not drawn) ?
104% (inactive)

Moving on to the next molecule: CCn1c(=S)[nH]c2sc3c(c2c1=O)CCCCC3
106% (inactive)

Further, for Nc1c(C(=O)c2cccs2)sc2nsc(SCCN3CCCCC3)c12 ?
221% (active)

And then CCN(CCCNC(=O)CSc1cc(=O)n(C)c2cc(Cl)ccc12)Cc1ccccc1 , what is it?
102% (inactive)

Further, for COc1cc(Cl)c(C)cc1NC(=O)CSc1nnc(CN2CCCC2)o1 ?
105% (inactive)

Try CCC1(C)Cc2c(sc3[nH]c(=S)n(Cc4ccccc4)c(=O)c23)CO1 (stereo not drawn) next.
234% [may fluoresce violet] (active)

And for COc1ccc(/C=N/Nc2ncnc3sc4c(c23)CCCC4)cc1O ?
106% (inactive)

Quick one: CCN(CC)Cc1cc(C(C)=O)ccc1O
103% (inactive)

Please do the same for O=S(=O)(NCC1CN(S(=O)(=O)c2ccc3c(c2)OCCO3)C1)c1c(F)cccc1F as well.
103% (inactive)

Also Cc1cc(C)c(OCCN2CC(C)OC(C)C2)c(Br)c1 (stereo not drawn) ?
101% (inactive)

Consider next the molecule CC(CN1CCOCC1)OC(=O)c1ccc(C(C)(C)C)cc1 (stereo not drawn) in the same way.
110% (inactive)

Let us now turn to COc1cccc(N(C(=O)CNC(=O)c2ccco2)C(C(=O)NC2CCCCC2)c2cccnc2)c1 (stereo not drawn)
104% (inactive)

# iterate: O=C(C(Cc1ccccc1)n1cccc1)N1CCN(C2CCCCC2)CC1 (stereo not drawn)
96.8% (inactive)

Record: Cc1nc2ccccc2c(=O)n1NC(=O)c1ccccc1
99.1% (inactive)

Could you do the same for CCOC(=O)C1CCN(C(=O)Cc2c(C(=O)O)[nH]c3ccccc23)CC1 , please?
105% (inactive)

* * *

# PROTOCOL DETAILS: TOR pathway GLN3 branch reporter MEP2-GFP changes – S. cerevisiae, multiplex flow cytometry, MLPCN library, primary screen (AID 2016);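 also: median GFP fluorescence of the barcode-gated MEP2-GFP cells per well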
# EXPERIMENTAL CONTEXT: S. cerevisiae MEP2-GFP strain, 3 h, at 10 µM, 100% = DMSO control level
About 1,700 (0.52%) of roughly 330,000 compounds were called active.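 How the source made its calls: active means GFP response versus DMSO above a set limit, roughly screen mean plus 3 SD (cut at about 180% in these data); inconclusive means fewer than 70 cells counted for a yeast strain; inactive means the rest.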 This excerpt belongs to a sample that is enriched for actives.
A correct response names exactly one class from y for active, n for inactive

What outcome does the record of this test show for CC(Oc1cc2oc(=O)c3c(c2cc1Cl)CCCC3)C(=O)NCc1ccncc1 (stereo unspecified) ?
y

C=CCN1CC(C)/C(=N\O)CC1C (stereo unspecified) , same question.
n

Please do the same for C=CCC1=C/C(=C\c2c(N)n3nc(CC(=O)N4CCOCC4)sc3nc2=O)C=C(OC)C1=O as well.
n

Thanks! And COc1cc(CCC(=O)Nc2ccncc2Cl)cc(OC)c1OC ?
n

Repeat with CCN1CCN(C(=O)N[C@@H](C(=O)N[C@@H]2C(=O)N3C(C(=O)O)=C(CSc4nnnn4C)CS[C@H]23)c2ccc(O)cc2)C(=O)C1=O
n

Follow-up item: COc1ccc(S(=O)(=O)NC(C)C(=O)NCc2ccncc2)cc1Cl (stereo unspecified)
n

* * *

# PROTOCOL DETAILS: TOR pathway GLN3 branch reporter MEP2-GFP changes – S. cerevisiae, multiplex flow cytometry, MLPCN library, primary screen (AID 2016);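 also: median GFP fluorescence of the barcode-gated MEP2-GFP cells per well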
# EXPERIMENTAL CONTEXT: S. cerevisiae MEP2-GFP strain, 3 h, at 10 µM, 100% = DMSO control level
In all, about 330,000 compounds went through this assay and about 1,700 (0.52%) were called active.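 How the source made its calls: active means GFP response versus DMSO above a set limit, roughly screen mean plus 3 SD (cut at about 180% in these data); inconclusive means fewer than 70 cells counted for a yeast strain; inactive means the rest.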 The entries come from a sample that favours actives as a whole.
Just give me one of these, please: active, inactive

Test call, this compound: O=C(NCc1ccco1)C1CCCN(S(=O)(=O)c2cccc3nonc23)C1 (configuration not stated)
inactive

Query CCOc1cc(N2CCOCC2)c(OCC)cc1NC(=O)c1ccc(C)s1 next
inactive

Field entry: CCOc1ccc2nc(N(CCN(C)C)C(=O)c3ccc4ccccc4c3)sc2c1
active

Thanks! And COCCNC(=O)C(c1ccc(C)cc1)N(C(=O)CCC(=O)Nc1ccccn1)c1cccc(C)c1 (configuration not stated) ?
inactive

And then Cc1cccc(C)c1NC(=O)CS(=O)CC(=O)N1CCN(c2ccccc2)CC1 (configuration not stated) , what is it?
inactive

What about this compound? COc1ccc(S(=O)(=O)N(C)CC(=O)NCCCN2CCOCC2)cc1Cl
inactive

Also CC(=O)N(C)c1ccc(NC(=O)C(F)(F)F)cc1 , if possible.
inactive

Try this compound next: CC12CCC(=O)N1C(C(=O)NCCN1C(=O)S/C(=C\c3ccccc3F)C1=O)CS2 (configuration not stated)
inactive

Record: O=C(C1Cc2ccccc2CN1C(=O)c1ccco1)N1CCN(c2ccccc2)CC1 (configuration not stated)
inactive

Next: O=S(=O)(Nc1ccccc1)c1ccc(NS(=O)(=O)c2cccs2)cc1
inactive

Let us now turn to CCOc1ncccc1C(=O)OCc1cn2cc(Cl)ccc2n1
active

Also O=[N+]([O-])c1ccc(N2CCNCC2)cc1NCc1cccnc1 , if possible.
active

And then COC(=O)CCSc1cc([N+](=O)[O-])cc2c1c(C1OCCS1)nn2-c1ccccc1 (configuration not stated) , what is it?
inactive

Follow-up item: O=C(Nc1cccnc1Cl)c1cc(-c2cccc(Cl)c2)on1
inactive

CNS(=O)(=O)c1cccc(C(=O)NC2CCCc3ccccc32)c1 (configuration not stated) , same question.
inactive

Now the compound Cc1noc(C)c1-c1nc(CSc2ccc(Cl)cc2)no1
inactive

# repeat for COCCN1C(=O)N[C@@H](c2ccccc2)C(C(=O)OC)=C1C
inactive

Consider next the compound O=C(NCc1ccccc1Cl)C1CCN(S(=O)(=O)N2CCOCC2)CC1 in the same way.
inactive

# repeat for Cc1c(NC(=O)c2c([N+](=O)[O-])cnn2C)c(=O)n(-c2ccccc2)n1C
active

Lookup O=S(=O)(NC1CC1)c1ccc(F)c(F)c1
inactive

Same thing, different compound: O=C(c1ccccc1)N1CCN(c2ccc([N+](=O)[O-])c(NCc3ccco3)c2)CC1
inactive

And Cc1c(NC(=O)Nc2cccc([N+](=O)[O-])c2)c(=O)n(-c2ccccc2)n1C ?
inactive

Again, but for Cc1ccc(SCC2=NNC(=O)C2)cc1
active

Try Cc1cc(OCC(=O)Nc2c(C)n(C)n(-c3ccccc3)c2=O)ccc1[N+](=O)[O-] next.
inactive

Follow-up entry: Cn1sc(=O)c2cc(S(=O)(=O)NC3CC3)ccc21
active

And for Cc1ccc(SCCSc2ncccn2)cc1 ?
inactive

What do you have for O=C(c1cccc(Cl)c1)N1CCN(Cc2ccccc2)CC1 ?
inactive

Cool, now CC1CCC(NS(=O)(=O)c2ccc3c(c2)n(C)c(=O)c(=O)n3C)CC1 (configuration not stated)
inactive

Then OCC[C@H]1C[C@@H](O)[C@H](O)[C@]2(OCCCc3ccccc32)O1 ?
inactive

Try C/C(=N\NS(=O)(=O)c1ccc(Cl)cc1)c1ccc(NC(=O)c2ccco2)cc1 next.
inactive

Lookup Cc1nc(-c2ccc(F)cc2)c(CC(=O)Nc2cc(S(=O)(=O)N3CCCCC3)ccc2C)s1
inactive

Repeat for the following compound: CCOc1ncccc1C(=O)OCC(=O)N1c2ccccc2CC1C (configuration not stated)
inactive

For C/C(=N/NS(=O)(=O)c1ccccc1)c1ccc(NC(=O)C(F)(F)F)cc1 then?
active

What about this compound? COCCN(C(=O)CCC(=O)Nc1ccccn1)C(C(=O)NCCC(C)C)c1ccc(OC)cc1 (configuration not stated)
inactive

Same read-out for CN(c1ccccc1)c1ccc(/C=c2\s/c(=C(/C#N)C(=O)C(C)(C)C)n(Cc3ccco3)c2=O)cc1 ?
active

Quick one: CCOc1cc(N2CCOCC2)c(OCC)cc1NC(=O)COc1cccc2cccnc12
active

Further, for O=C(NCc1ccccc1Cl)C1CCN(S(=O)(=O)c2cccc3nonc23)CC1 ?
active
